- Assayed system: hTRPV1 (Homo sapiens, UniProt Q8NER1)
- Sequence (Q8NER1 whole entry): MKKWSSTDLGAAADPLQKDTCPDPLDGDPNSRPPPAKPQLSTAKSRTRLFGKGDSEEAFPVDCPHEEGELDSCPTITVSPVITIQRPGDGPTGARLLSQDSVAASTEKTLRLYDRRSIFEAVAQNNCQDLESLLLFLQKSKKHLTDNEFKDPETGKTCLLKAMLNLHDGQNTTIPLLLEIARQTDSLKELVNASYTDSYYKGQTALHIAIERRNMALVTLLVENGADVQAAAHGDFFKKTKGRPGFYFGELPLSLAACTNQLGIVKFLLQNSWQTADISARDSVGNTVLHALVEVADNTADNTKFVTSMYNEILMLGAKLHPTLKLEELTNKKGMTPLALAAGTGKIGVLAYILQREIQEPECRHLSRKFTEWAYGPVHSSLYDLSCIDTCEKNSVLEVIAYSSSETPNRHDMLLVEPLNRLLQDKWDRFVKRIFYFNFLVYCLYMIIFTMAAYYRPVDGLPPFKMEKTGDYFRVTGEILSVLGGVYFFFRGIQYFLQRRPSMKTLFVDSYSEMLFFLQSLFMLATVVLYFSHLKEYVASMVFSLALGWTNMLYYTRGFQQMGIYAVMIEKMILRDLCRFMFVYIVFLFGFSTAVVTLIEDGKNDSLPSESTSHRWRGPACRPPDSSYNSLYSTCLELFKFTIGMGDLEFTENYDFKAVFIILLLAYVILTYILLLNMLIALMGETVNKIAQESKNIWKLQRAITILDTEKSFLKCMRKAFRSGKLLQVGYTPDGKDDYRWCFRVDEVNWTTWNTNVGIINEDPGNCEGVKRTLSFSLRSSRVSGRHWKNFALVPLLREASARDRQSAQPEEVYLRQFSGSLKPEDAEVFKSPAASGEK
- Format: cell-based
Measured metric: pEC50
By convention, pEC50 is the negative base-10 log of a molar concentration.

Record CCCCCCCCCCCC(=O)NCCO [compound 3, lauric acid monoethanolamide] , field pEC50: 5.49
